These entries and their values trace back to ChEMBL document CHEMBL4513216.

# ASSAY NAME: Toxicity liver stage against HepG2, at 10uM
# Assay type: cell-based
# Design: test concentration 10 uM, cell line HepG2-A16-CD81EGFP
# TEST CONDITIONS: human, HepG2-A16-CD81EGFP cells; read-out: INHIBITION
MEASUREMENT TYPE: cytotoxicity at 10 µM (%)
Output spec: scalar in %, unitless text.

COMPOUND: C[C@]1(O)CCN(Cc2cccnc2)C[C@@H]1Oc1cccc(F)c1
cytotoxicity at 10 µM, %: -8.22
--
COMPOUND: Cc1nn(C)c(C)c1CNCc1cccnc1N1CCOCC1
cytotoxicity at 10 µM, %: -138
--
COMPOUND: O=C(c1ccnnc1)N1CCC2(CC1)CCN(C(=O)c1cccnc1)C2
cytotoxicity at 10 µM, %: -97.8
--
COMPOUND: O=C1CO[C@H]2CN(Cc3cccnc3)C[C@H]2N1
cytotoxicity at 10 µM, %: -4
--
COMPOUND: CSc1ccc(C(=O)N2CC(=O)N(Cc3ccccc3)CC(O)C2)cc1 (stereo unspecified)
cytotoxicity at 10 µM, %: -0.426

Alright, here's another compound for you.
Qu. Fill in the blank: the reported cytotoxicity at 10 µM of Cn1cc(CN2CCc3ccc(=O)n(Cc4ccncc4)c3CC2)cn1 is ____.
Ans. 3.97
